# EXPERIMENT SUMMARY: Displacement of [3H]AMPA from AMPA receptor in rat cortical membrane
# Assay type: cell membranes
pIC50: −log10 of the molar value.
Below: a set of entries, each annotated with reported pIC50.

Field: example entries. Status: answers known.
* NC(C(=O)O)c1cnn(O)c1Cc1ccccc1 (racemic) | < 4.00
* NC(C(=O)O)c1cnn(O)c1-c1ccccc1 (racemic) | < 4.00
* NC(C(=O)O)c1cnn(O)c1CCc1ccccc1 (racemic) | < 4.00
* CCCCc1c(C(N)C(=O)O)cnn1O (racemic) | < 4.00

[ask] Entry NC(C(=O)O)c1cnn(O)c1CCCc1ccccc1 (racemic) : reported pIC50 = ?
[reply] < 4.00

[ask] Another: NC(C(=O)O)c1cnn(O)c1C(c1ccccc1)c1ccccc1 (racemic)
[reply] < 4.00

[ask] Another: NC(C(=O)O)c1cnn(O)c1CC1CCCCC1 (racemic)
[reply] < 4.00

[ask] Another: CCCc1c(C(N)C(=O)O)cnn1O (racemic)
[reply] < 4.00
